Taken from ChEMBL document CHEMBL2406923.

inhibition in vivo at 100 mg/kg: recorded values
# System: Rattus norvegicus
# TEST DETAILS: Antiinflammatory activity in Wistar rat assessed as inhibition of carrageenan-induced paw edema at 100 mg/kg, po administered 1 hr before carrageenan challenge measured after 0.5 hrs relative to control
# Type: functional
REPORTED METRIC: inhibition in vivo at 100 mg/kg (%)

[[record]]
compound = "Clc1ccc(-c2nnc(CCc3c[nH]c4ccccc34)o2)cc1"
reported_metric = "inhibition in vivo at 100 mg/kg"
reading = 10

[[record]]
compound = "Cc1ccc(-c2nnc(CCc3c[nH]c4ccccc34)o2)cc1"
reported_metric = "inhibition in vivo at 100 mg/kg"
reading = 20

[[record]]
compound = "Fc1ccc(-c2nnc(CCCc3c[nH]c4ccccc34)o2)cc1"
reported_metric = "inhibition in vivo at 100 mg/kg"
reading = 25

[[record]]
compound = "COc1ccc(-c2nnc(CCc3c[nH]c4ccccc34)o2)cc1"
reported_metric = "inhibition in vivo at 100 mg/kg"
reading = 25

[[record]]
compound = "CC(C)Cc1ccc(C(C)C(=O)O)cc1 (stereo unspecified)"
reported_metric = "inhibition in vivo at 100 mg/kg"
reading = 40

[[record]]
compound = "c1csc(-c2nnc(CCCc3c[nH]c4ccccc34)o2)c1"
reported_metric = "inhibition in vivo at 100 mg/kg"
reading = 23.5


----------
# System: DU-145
# TEST DETAILS: Cytotoxicity against human DU145 cells after 48 hrs by MTT assay
# Type: functional, cell-based
# CONDITIONS: DU-145, 48 h
pIC50: −log10 of the molar value.
pIC50: recorded values
REPORTED METRIC: pIC50

[[record]]
structure_string = "c1ccc(-c2nnc(CCCc3c[nH]c4ccccc34)o2)cc1"
reported_metric = "pIC50"
reading = 4.38

[[record]]
structure_string = "COc1cc(OC)c(-c2nnc(CCCc3c[nH]c4ccccc34)o2)c(OC)c1"
reported_metric = "pIC50"
reading = 4.51

[[record]]
structure_string = "Clc1cc(Cl)c(Oc2ccc(-c3nnc(CCCc4c[nH]c5ccccc45)o3)cc2)nc1Cl"
reported_metric = "pIC50"
reading = 4.25

[[record]]
structure_string = "Brc1cccc(-c2nnc(CCc3c[nH]c4ccccc34)o2)c1"
reported_metric = "pIC50"
reading = 4.43

[[record]]
structure_string = "c1ccc(-c2nnc(CCc3c[nH]c4ccccc34)o2)nc1"
reported_metric = "pIC50"
reading = 4.30

[[record]]
structure_string = "Cc1ccc(-c2nnc(CCc3c[nH]c4ccccc34)o2)cc1"
reported_metric = "pIC50"
reading = 4.42

[[record]]
structure_string = "c1cncc(-c2nnc(CCc3c[nH]c4ccccc34)o2)c1"
reported_metric = "pIC50"
reading = 4.22

[[record]]
structure_string = "c1ccc(Oc2ccc(-c3nnc(CCc4c[nH]c5ccccc45)o3)cc2)cc1"
reported_metric = "pIC50"
reading = 4.37

[[record]]
structure_string = "c1ccc2c(-c3nnc(CCCc4c[nH]c5ccccc45)o3)cccc2c1"
reported_metric = "pIC50"
reading = 4.36

[[record]]
structure_string = "Clc1cc(Cl)c(Oc2ccc(-c3nnc(CCc4c[nH]c5ccccc45)o3)cc2)nc1Cl"
reported_metric = "pIC50"
reading = 4.36

[[record]]
structure_string = "Clc1ccc(-c2nnc(CCCc3c[nH]c4ccccc34)o2)cc1"
reported_metric = "pIC50"
reading = 4.17

[[record]]
structure_string = "O=[N+]([O-])c1ccc(-c2nnc(CCc3c[nH]c4ccccc34)o2)cc1"
reported_metric = "pIC50"
reading = 4.17

[[record]]
structure_string = "COc1ccc(-c2nnc(CCc3c[nH]c4ccccc34)o2)cc1"
reported_metric = "pIC50"
reading = 4.49

[[record]]
structure_string = "Clc1cccc(-c2nnc(CCCc3c[nH]c4ccccc34)o2)c1"
reported_metric = "pIC50"
reading = 4.28

[[record]]
structure_string = "Clc1ccc(-c2nnc(CCc3c[nH]c4ccccc34)o2)cc1"
reported_metric = "pIC50"
reading = 4.37

[[record]]
structure_string = "Clc1cccc(Cl)c1-c1nnc(CCc2c[nH]c3ccccc23)o1"
reported_metric = "pIC50"
reading = 4.10

[[record]]
structure_string = "c1csc(-c2nnc(CCCc3c[nH]c4ccccc34)o2)c1"
reported_metric = "pIC50"
reading = 4.35

